Data credit: ChEMBL document CHEMBL3616471

- procedure-summary: Cytotoxicity against mouse NIH/3T3 cells after 72 hrs by MTT assay
- Type: cell-based
- experimental-context: nih3t3, 72 h
property: Activity

Use the examples below as a reference point.
>>> observed("C=C(C)[C@@H]1CC[C@]2(COC(=O)CCC(=O)O)CC[C@]3(C)[C@H](CC[C@@H]4[C@@]5(C)CC[C@H](O)C(C)(C)[C@@H]5CC[C@]43C)[C@@H]12")
"Non-toxic"
>>> observed("C=C(C)[C@@H]1CC[C@]2(COC(=O)/C=C/C(=O)O)CC[C@]3(C)[C@H](CC[C@@H]4[C@@]5(C)CC[C@H](O)C(C)(C)[C@@H]5CC[C@]43C)[C@@H]12")
"Toxic"
>>> observed("C=C(C)[C@@H]1CC[C@]2(COC(=O)CCC(=O)N(CC)CC)CC[C@]3(C)[C@H](CC[C@@H]4[C@@]5(C)CC[C@H](O)C(C)(C)[C@@H]5CC[C@]43C)[C@@H]12")
"Non-toxic"
>>> observed("C=C(C)[C@@H]1CC[C@]2(COC(=O)/C=C/C(=O)N3CCCCC3)CC[C@]3(C)[C@H](CC[C@@H]4[C@@]5(C)CC[C@H](O)C(C)(C)[C@@H]5CC[C@]43C)[C@@H]12")
"Toxic"
>>> observed("C=C(C)[C@@H]1CC[C@]2(COC(=O)CCC(=O)N3CCOCC3)CC[C@]3(C)[C@H](CC[C@@H]4[C@@]5(C)CC[C@H](O)C(C)(C)[C@@H]5CC[C@]43C)[C@@H]12")
"Non-toxic"

q: For C=C(C)[C@@H]1CC[C@]2(COC(=O)CCC(=O)N3CCCC3)CC[C@]3(C)[C@H](CC[C@@H]4[C@@]5(C)CC[C@H](O)C(C)(C)[C@@H]5CC[C@]43C)[C@@H]12 , what is its reported Activity?
a: Non-toxic

q: Let us now turn to C=C(C)[C@@H]1CC[C@]2(COC(=O)CCC(=O)N3CCCCC3)CC[C@]3(C)[C@H](CC[C@@H]4[C@@]5(C)CC[C@H](O)C(C)(C)[C@@H]5CC[C@]43C)[C@@H]12
a: Non-toxic
